- Tested on: EPHB1
- EXPERIMENTAL_CONDITIONS: concentration: 1 μM, replicates: in singlicate; n = 1;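 note: KINOMEscan kinase panel screen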
REPORTED_ENDPOINT: %Inh (%)
Only the number, expressed in %, is required.

(Q) Report value: %Inh, system: EPHB1, molecule: CN1c2ccc(NCc3ccc(F)cc3)cc2-c2c(cnn2C)S1(=O)=O
(A) 0

(Q) Report value: %Inh, system: EPHB1, molecule: Fc1ccc(-c2ncn(CCCN3CCOCC3)c2-c2ccccn2)cc1
(A) 20

(Q) Report value: %Inh, system: EPHB1, molecule: O=C(NOCC1CC1)c1ccc(F)c(F)c1Nc1ccc(I)cc1Cl
(A) 0

###

- Test system: NEK3
- EXPERIMENTAL_CONDITIONS: concentration: 1 μM, replicates: in singlicate; n = 1
Kindly state %Inh for each of the entries shown.
Only the number, expressed in %, is required.

(Q) Return reported %Inh. Input compound: C[C@@H](Oc1cc(-n2cnc3ccc(NC(=O)NC(C)(C)C)cc32)sc1C(N)=O)c1ccccc1Cl
(A) 5

(Q) Return reported %Inh. Input compound: Cc1c(Cn2c(C)nn3c(=O)cc(N4CCOC(C)C4)nc23)cccc1C(F)(F)F (stereo not drawn)
(A) 0

(Q) Return reported %Inh. Input compound: COc1ccc(COc2cc(-n3cnc4ccccc43)sc2C(N)=O)cc1
(A) 0

(Q) Return reported %Inh. Input compound: N#Cc1c(N2CCOCC2)sc(-c2ccn[nH]2)c1-c1ccc(Cl)cc1
(A) 23

(Q) Return reported %Inh. Input compound: NS(=O)(=O)c1cccc(-c2ccc3nccc(-c4cccc(S(N)(=O)=O)c4)c3c2)c1
(A) 29

(Q) Return reported %Inh. Input compound: COc1cc2c(cc1OC[C@@H](O)CO)ncc1c3ccc(C#N)cc3[nH]c21
(A) 37

(Q) Return reported %Inh. Input compound: Cc1cccc(-c2nc(Nc3ccc4ncsc4c3)c3ccccc3n2)n1
(A) 0

(Q) Return reported %Inh. Input compound: O=c1cc(N2CCOCC2)nc2n(Cc3cccc4ccccc34)ccn12
(A) 0

(Q) Return reported %Inh. Input compound: Nc1nccc(-c2c(-c3ccc(F)cc3)ncn2C2CCN(CC(F)(F)F)CC2)n1
(A) 24

(Q) Return reported %Inh. Input compound: NS(=O)(=O)c1cccc(-c2ccc3ncc(N4CCOCC4)nc3c2)c1
(A) 0

(Q) Return reported %Inh. Input compound: CC(=O)Nc1ccc(COc2ccc(Nc3ccnc4cc(-c5ccccn5)ccc34)cc2)cc1.Cl
(A) 6

(Q) Return reported %Inh. Input compound: COc1ccc(Nc2nccc(N3CCC(NC(=O)Nc4cccc(C(C)=O)c4)C3)n2)cc1 (stereo not drawn)
(A) 0

(Q) Return reported %Inh. Input compound: Cc1cccc(-c2nc(-c3ccc(S(C)(=O)=O)cc3)sc2-c2ccncc2)c1
(A) 61

(Q) Return reported %Inh. Input compound: Cc1c2ccc(N(C)c3ccnc(Nc4cccc(S(N)(=O)=O)c4)n3)cc2nn1Cc1ccccc1.Cl.Cl
(A) 22

(Q) Return reported %Inh. Input compound: c1ccc(-c2n[nH]cc2-c2ccnc3ccccc23)nc1
(A) 14

(Q) Return reported %Inh. Input compound: N#Cc1ccc(-c2cc(-c3c[nH]nc3-c3ccccn3)ccn2)cc1
(A) 8

(Q) Return reported %Inh. Input compound: CCn1cnc2c(N)ncnc21
(A) 3

(Q) Return reported %Inh. Input compound: O=c1cc(N2CCOCC2)nc2n(Cc3cccc(F)c3)ccn12
(A) 0

###

- Tested on: PFTK1
- Construct: gene CDK14
- EXPERIMENTAL_CONDITIONS: concentration: 1 μM, replicates: in singlicate; n = 1
One threshold, 10%, splits the recorded %Inh values: lower ones are t, equal or higher ones are f.

(Q) Find out if reported %Inh for O=c1cc(N2CCOCC2)nc2n(Cc3cccc(F)c3)ccn12 [GSK2297430] is less than 10%
(A) f

(Q) Find out if reported %Inh for CCn1cnc2c(N)ncnc21 [GW345098] is less than 10%
(A) t

(Q) Find out if reported %Inh for [2H]C([2H])(c1cccc(C(F)(F)F)c1C)n1ccn2c(=O)nc(N3CCOCC3)cc12 [GSK2336394] is less than 10%
(A) f

(Q) Find out if reported %Inh for Cc1ccc(C(=O)NCC(N)=O)cc1-n1c(C)cc(OCc2ccc(F)cc2F)c(Br)c1=O is less than 10%
(A) f

(Q) Find out if reported %Inh for CCc1ccnc(/C=C/c2n[nH]c3cc(Sc4ccccc4C(=O)NC)ccc23)c1 is less than 10%
(A) t

(Q) Find out if reported %Inh for COC(=O)Nc1nc2cc(Oc3ccc(NC(=O)Nc4cc(F)ccc4F)cc3)ccc2[nH]1.Cl [GW701424] is less than 10%
(A) f

(Q) Find out if reported %Inh for COc1cc2ncn(-c3cc(OCc4sccc4Cl)c(C(N)=O)s3)c2cc1OC [GSK448459] is less than 10%
(A) f

(Q) Find out if reported %Inh for Nc1nccc(-c2c(-c3ccc(F)cc3)ncn2C2CCN(CC(F)(F)F)CC2)n1 [SB-236560] is less than 10%
(A) t

(Q) Find out if reported %Inh for O=c1cc(N2CCOCC2)nc2n(Cc3cccc4ccccc34)ccn12 [GSK2333389] is less than 10%
(A) t

(Q) Find out if reported %Inh for CC(=O)Nc1ccc(COc2ccc(Nc3ccnc4cc(-c5ccccn5)ccc34)cc2)cc1.Cl [GW440148] is less than 10%
(A) f

(Q) Find out if reported %Inh for CSc1ccc(-c2cc3ncnc(SCC(=O)O)c3s2)cc1 is less than 10%
(A) t

(Q) Find out if reported %Inh for CN(C1=C(c2ccccc2)C(=O)NC1=O)c1ccccc1 [SB-334860] is less than 10%
(A) f

(Q) Find out if reported %Inh for NS(=O)(=O)CCc1cccc(Nc2nccc(-c3c(-c4cccc(NC(=O)c5c(F)cccc5F)c4)nn4ccccc34)n2)c1 [GSK336735] is less than 10%
(A) f

(Q) Find out if reported %Inh for CN1c2ccc(NCc3ccc(F)cc3)cc2-c2c(cnn2C)S1(=O)=O is less than 10%
(A) t

(Q) Find out if reported %Inh for O=C(Nc1cccc(-c2nn3ncccc3c2-c2ccnc(Nc3cccc(C(F)(F)F)c3)n2)c1)c1c(F)cccc1F [GSK299495] is less than 10%
(A) f

(Q) Find out if reported %Inh for Cn1cc(-c2ccc3c(c2)CCN3C(=O)Cc2ccccc2Cl)c2c(N)ncnc21 [GSK2608885] is less than 10%
(A) t

(Q) Find out if reported %Inh for COc1ccc(CNC(=O)NC2CCN(c3ccnc(Nc4ccc(OC)cc4)n3)C2)cc1 (stereo not drawn) [GSK1379727] is less than 10%
(A) t

(Q) Find out if reported %Inh for COc1ccc(Nc2nccc(N3CCC(NC(=O)Nc4cc(C)ccc4C)C3)n2)cc1 (stereo not drawn) [GSK1379741] is less than 10%
(A) t

###

- System: CASK
- EXPERIMENTAL_CONDITIONS: concentration: 1 μM, replicates: in singlicate; n = 1
Kindly state %Inh for each of the entries shown.
Only the number, expressed in %, is required.

(Q) Report value: %Inh, system: CASK, molecule: O=C(Nc1cccc(-c2nn3ncccc3c2-c2ccnc(Nc3cccc(C(F)(F)F)c3)n2)c1)c1c(F)cccc1F [GSK299495]
(A) 13

(Q) Report value: %Inh, system: CASK, molecule: CCc1nc(-c2cccc(C)c2)c(-c2ccnc(NCc3ccccc3)c2)s1
(A) 16

(Q) Report value: %Inh, system: CASK, molecule: CC(C)Oc1ccc2c(-c3ccnc(Nc4ccc(N5CCN(C)CC5)cc4)n3)cnn2n1 [GW696155]
(A) 23

(Q) Report value: %Inh, system: CASK, molecule: O=c1cc(N2CCOCC2)nc2n(Cc3cccc4ccccc34)ccn12 [GSK2333389]
(A) 0

###

Kindly state %Inh for each of the entries shown.
- Tested on: TGFBR2
- EXPERIMENTAL_CONDITIONS: concentration: 1 μM, replicates: in singlicate; n = 1
Only the number, expressed in %, is required.

(Q) Return reported %Inh. Input compound: O=C1NC(=O)C(N2CCc3ccccc32)=C1c1cccc(Cl)c1
(A) 1

(Q) Return reported %Inh. Input compound: Fc1ccc(-c2nn3c(OCC(F)(F)F)cccc3c2-c2ccncc2)cc1
(A) 55

(Q) Return reported %Inh. Input compound: COc1cc2c(cc1OCCN1CCN(C)CC1)ncc1c3ccc(C#N)cc3[nH]c21
(A) 0

(Q) Return reported %Inh. Input compound: NS(=O)(=O)CCc1cccc(Nc2nccc(-c3c(-c4cccc(NC(=O)c5c(F)cccc5F)c4)nn4ccccc34)n2)c1
(A) 20

(Q) Return reported %Inh. Input compound: NS(=O)(=O)c1cccc(-c2ccc3ncc(N4CCOCC4)nc3c2)c1
(A) 0

(Q) Return reported %Inh. Input compound: COCCNC(=O)c1ccc(-c2cc(C(=O)NC3CC3)cc(F)c2C)cc1
(A) 6

(Q) Return reported %Inh. Input compound: COc1ccc(S(=O)(=O)NC2CCN(c3cc(C)nc(Nc4cccc(C#N)c4)n3)CC2)cc1.O=C(O)C(F)(F)F
(A) 0

(Q) Return reported %Inh. Input compound: Cc1nnc(-c2ccc3occ(-c4ccc(C(C)O)cc4)c3c2)o1 (stereo not drawn)
(A) 69

(Q) Return reported %Inh. Input compound: Cc1cccc(-c2nc(-c3ccc(S(C)(=O)=O)cc3)sc2-c2ccncc2)c1
(A) 0

(Q) Return reported %Inh. Input compound: c1ccc(-c2n[nH]cc2-c2ccnc3ccccc23)nc1
(A) 72

(Q) Return reported %Inh. Input compound: Cc1c(Cn2c(C)nn3c(=O)cc(N4CCOC(C)C4)nc23)cccc1C(F)(F)F (stereo not drawn)
(A) 0

(Q) Return reported %Inh. Input compound: C[C@@H](Oc1cc(-n2cnc3ccc(NC(=O)NC(C)(C)C)cc32)sc1C(N)=O)c1ccccc1Cl
(A) 4

(Q) Return reported %Inh. Input compound: COC(=O)Nc1nc2cc(Oc3ccc(NC(=O)Nc4cc(F)ccc4F)cc3)ccc2[nH]1.Cl
(A) 0

(Q) Return reported %Inh. Input compound: c1ccc(-c2cc(-c3c[nH]nc3-c3ccccn3)ccn2)cc1
(A) 62

(Q) Return reported %Inh. Input compound: CC(=O)Nc1ccc(COc2ccc(Nc3ccnc4cc(-c5ccccn5)ccc34)cc2)cc1.Cl
(A) 28

(Q) Return reported %Inh. Input compound: O=C(NCCCN1CCOCC1)c1cccc(Nc2nccc(Nc3ccc(Oc4ccccc4)cc3)n2)c1
(A) 7

(Q) Return reported %Inh. Input compound: CN1c2ccc(CNc3ccc(F)cc3)cc2-c2c(cnn2C)S1(=O)=O
(A) 0

(Q) Return reported %Inh. Input compound: Cc1ccc(NC(=O)c2ccnc(N3CCN(C)CC3)c2)cc1-c1ccc(C(=O)NCC2CC2)cc1
(A) 0

Just for reference, paper PMC5540273 is where these values come from.
